All figures here come from patent US10550111B2.

System: Abutilon theophrasti Medic.
Experiment: Bioassay of herbicidal activity in greenhouse (further screening)
Assay type: in vivo
Settings: post-emergence; dose 7.5 g a.i./hm^2
OBSERVABLE: Growth inhibition rate, Post-emergence treatment, Abutilon theophrasti Medic. (%)
Answers are plain numbers, in %.

1) CC(=O)OCC1(C)CC(c2cc(-n3c(=O)cc(C(F)(F)F)n(C)c3=O)c(F)cc2Cl)=NO1 (stereo not shown); 100
2) Cn1c(C(F)(F)F)cc(=O)n(-c2cc(C3=NOC(C)(COS(C)(=O)=O)C3)c(Cl)cc2F)c1=O (stereo not shown); 98
3) CC(C)C(=O)OCC1(C)CC(c2cc(-n3c(=O)cc(C(F)(F)F)n(C)c3=O)c(F)cc2Cl)=NO1 (stereo not shown); 98
4) CCOC(=O)C1(C)CC(c2cc(-n3c(=O)cc(C(F)(F)F)n(C)c3=O)c(F)cc2Cl)=NO1 (stereo not shown); 100
5) COCCOC(=O)C1(C)CC(c2cc(-n3c(=O)cc(C(F)(F)F)n(C)c3=O)c(F)cc2Cl)=NO1 (stereo not shown); 75
6) COC(=O)C1(C)CC(c2cc(-n3c(=O)cc(C(F)(F)F)n(C)c3=O)c(F)cc2Cl)=NO1 (stereo not shown); 100
7) CC(C)OC(=O)C1(C)CC(c2cc(-n3c(=O)cc(C(F)(F)F)n(C)c3=O)c(F)cc2Cl)=NO1 (stereo not shown); 100
8) CCOCCOC(=O)C1(C)CC(c2cc(-n3c(=O)cc(C(F)(F)F)n(C)c3=O)c(F)cc2Cl)=NO1 (stereo not shown); 65
9) CCCCOC(=O)C1(C)CC(c2cc(-n3c(=O)cc(C(F)(F)F)n(C)c3=O)c(F)cc2Cl)=NO1 (stereo not shown); 100
10) Cn1c(C(F)(F)F)cc(=O)n(-c2cc(C3=NOC(C)(COC(=O)COc4ccc(Cl)cc4Cl)C3)c(Cl)cc2F)c1=O (stereo not shown); 65

# batch size: 6; output Growth inhibition rate, Post-emergence treatment, Abutilon theophrasti Medic. per entry
1. Cn1c(C(F)(F)F)cc(=O)n(-c2cc(C3=NOC(C)(C(=O)OCC(F)(F)F)C3)c(Cl)cc2F)c1=O (stereo not shown)
2. Cn1c(C(F)(F)F)cc(=O)n(-c2cc(C3=NOC(C)(C(=O)OCC4CCCO4)C3)c(Cl)cc2F)c1=O (stereo not shown)
3. CCCOC(=O)C1(C)CC(c2cc(-n3c(=O)cc(C(F)(F)F)n(C)c3=O)c(F)cc2Cl)=NO1 (stereo not shown)
4. Cn1c(C(F)(F)F)cc(=O)n(-c2cc(C3=NOC(C)(COC(=O)C4CC4)C3)c(Cl)cc2F)c1=O (stereo not shown)
5. CC(C)COC(=O)C1(C)CC(c2cc(-n3c(=O)cc(C(F)(F)F)n(C)c3=O)c(F)cc2Cl)=NO1 (stereo not shown)
6. CC(=O)OCCOC(=O)C1(C)CC(c2cc(-n3c(=O)cc(C(F)(F)F)n(C)c3=O)c(F)cc2Cl)=NO1 (stereo not shown)

1: 98; 2: 98; 3: 75; 4: 98; 5: 98; 6: 95

====

System: Echinochloa crus-galli (L.) Beauv.
Experiment: Bioassay of herbicidal activity in greenhouse (further screening)
Format: in vivo
Details: post-emergence; dose 150 g a.i./hm^2
OBSERVABLE: Growth inhibition rate, Post-emergence treatment, Echinochloa crus-galli (L.) Beauv. (%)
Answers are plain numbers, in %.

1) Cn1c(C(F)(F)F)cc(=O)n(-c2cc(C3=NOC(C)(COS(C)(=O)=O)C3)c(Cl)cc2F)c1=O (centres unmarked); 60
2) CCCCOC(=O)C1(C)CC(c2cc(-n3c(=O)cc(C(F)(F)F)n(C)c3=O)ccc2Cl)=NO1 (centres unmarked); 60
3) Cn1c(C(F)(F)F)cc(=O)n(-c2cc(C3=NOC(C)(C(=O)O)C3)c(Cl)cc2F)c1=O (centres unmarked); 25
4) CCCS(=O)(=O)OCC1(C)CC(c2cc(-n3c(=O)cc(C(F)(F)F)n(C)c3=O)c(F)cc2Cl)=NO1 (centres unmarked); 35

Next, consider the following compound.
Known value: Echinochloa crus-galli (L.) Beauv. Growth inhibition rate, Post-emergence treatment, Echinochloa crus-galli (L.) Beauv. of the compound Cn1c(C(F)(F)F)cc(=O)n(-c2cc(C3=NOC(C)(COC(=O)CCl)C3)c(Cl)cc2F)c1=O (centres unmarked) equals 30
